The reader will find reported self-cleavage values listed item by item below.
B1: HDV Ribozyme (parent)
chain: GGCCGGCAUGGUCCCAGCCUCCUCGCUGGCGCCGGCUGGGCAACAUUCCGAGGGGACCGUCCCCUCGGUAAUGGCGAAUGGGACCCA

- Variants of: B1
- Protocol: self-cleavage, relative activity (ratio to wild type); higher = more cleavage; co-transcriptional

C30A C41A | 0.429
C26G G81C | 0.499
C21G C58U | 0.0314
C18A A78C | 0.0978

Now turn to the next variant.
Specify self-cleavage for G31A A71G and stop.
0.432
